- SYSTEM_TESTED: rhodopsin (Bos taurus)
- Construct: Bovine rod outer segments (rhodopsin-containing membranes) were prepared from fresh retinas; from tissue; host or cells: bovine retina, rod outer segment membranes (EDTA- and urea-washed)
- Sequence (P02699 whole entry): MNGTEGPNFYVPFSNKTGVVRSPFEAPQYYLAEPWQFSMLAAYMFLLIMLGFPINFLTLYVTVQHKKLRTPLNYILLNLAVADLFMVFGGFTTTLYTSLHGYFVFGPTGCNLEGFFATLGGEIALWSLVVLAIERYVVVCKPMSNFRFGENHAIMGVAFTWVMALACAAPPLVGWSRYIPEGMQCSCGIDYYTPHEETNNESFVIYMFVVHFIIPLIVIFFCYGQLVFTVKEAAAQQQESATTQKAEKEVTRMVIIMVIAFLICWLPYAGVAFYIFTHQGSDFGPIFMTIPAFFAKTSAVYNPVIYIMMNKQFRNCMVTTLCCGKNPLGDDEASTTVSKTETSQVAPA
- PROTOCOL_DETAILS: ELISA binding of lysates of peptides panned from the Gt library to rhodopsin
- Design: species or system bovine
- SETUP_CONDITIONS: OD450 for wells with receptor minus OD450 for wells with no receptor
REPORTED_METRIC: ELISA

INPUT_SEQUENCE	SYSTEM_TESTED	ELISA
ICENLKDCGLF [Clone L6]	rhodopsin (Bos taurus)	.342
LRENLKDCGLL [Clone L14]	rhodopsin (Bos taurus)	.833

Lookup result for ILENLKDCGLF [Clone L3] ; measured ELISA: .839

Measured ELISA, ILQNLKDCGLF [Clone L17] : .600

Lab note: measured ELISA of MLDNLKDCGLF [Clone L7] was .525

Short answer for IRGSLKDCGLF [Clone L20] : ELISA was .423

Field ELISA (entry VRDILKDCGLF [Clone L15] ) reads .621

The sequence listed as MLDNLKACGLF [Clone L4] has a reported ELISA of .908

IVKNLEDCGLF [Clone L8] yielded ELISA of .257

Field ELISA (entry ILESLNECGLF [Clone L34] ) reads .603

Record ISKNLRDCGLL [Clone L13] , field ELISA: .187

Given item LLDILKDCGLF [Clone L38] , the value recorded as its ELISA is .823

###

- SYSTEM_TESTED: rhodopsin (Bos taurus)
- Construct: Bovine rod outer segments (rhodopsin-containing membranes) were prepared from fresh retinas; from tissue; host or cells: bovine retina, rod outer segment membranes (EDTA- and urea-washed)
- PROTOCOL_DETAILS: "extra MII" assay: stabilization of metarhodopsin II
- Assay type: biochemical, bovine
- SETUP_CONDITIONS: MBP-high affinity peptide fusion proteins
pEC50: −log10 of the molar value.
Use fulfilled when the recorded pEC50 is no lower than 6; use not fulfilled when it is lower.

Here are 3 sequences together with their reported answers.
INPUT_SEQUENCE	CLASSIFICATION
VLEDLKSCGLF [MBP-23]	not fulfilled
IKENLKDCGLF [Gt, reference compound]	not fulfilled
MLKNLKDCGMF [MBP-24]	fulfilled

--- query ---
Challenge: Does ICENLKDCGLF [MBP-10] have a reported pEC50 of at least 6?
Response given: not fulfilled

###

- SYSTEM_TESTED: β2 adrenergic receptor (Homo sapiens)
- PROTOCOL_DETAILS: ELISA binding of peptides panned from the Gs library to β2 adrenergic receptor
- SETUP_CONDITIONS: recombinant reconstituted β2 adrenergic receptor; peptides selected from Gs library
# reported ELISA; entries follow

Worked cases, answers included:
INPUT_SEQUENCE	REPORTED
PRPRLLRFKIP [AG19]	.361
QRLHLRGYEFL [AG13]	.054
QRMPLRLFEFL [AG3]	.217
QGEHLRQLQLQ [AG2]	.330
QGMQLRRFKLR [AG1]	.435
QWMDLRQHELL [BAR3]	.185

As a next step, examine the sequence that follows.
Value of ELISA reported for the sequence QRLRLRKYRLF [BAR31] is .026

Values were extracted from patent US7294472B2.
